System Name: T1, B-cat-Halo (UniProt P35222 1-781)
T1 sequence (looked up): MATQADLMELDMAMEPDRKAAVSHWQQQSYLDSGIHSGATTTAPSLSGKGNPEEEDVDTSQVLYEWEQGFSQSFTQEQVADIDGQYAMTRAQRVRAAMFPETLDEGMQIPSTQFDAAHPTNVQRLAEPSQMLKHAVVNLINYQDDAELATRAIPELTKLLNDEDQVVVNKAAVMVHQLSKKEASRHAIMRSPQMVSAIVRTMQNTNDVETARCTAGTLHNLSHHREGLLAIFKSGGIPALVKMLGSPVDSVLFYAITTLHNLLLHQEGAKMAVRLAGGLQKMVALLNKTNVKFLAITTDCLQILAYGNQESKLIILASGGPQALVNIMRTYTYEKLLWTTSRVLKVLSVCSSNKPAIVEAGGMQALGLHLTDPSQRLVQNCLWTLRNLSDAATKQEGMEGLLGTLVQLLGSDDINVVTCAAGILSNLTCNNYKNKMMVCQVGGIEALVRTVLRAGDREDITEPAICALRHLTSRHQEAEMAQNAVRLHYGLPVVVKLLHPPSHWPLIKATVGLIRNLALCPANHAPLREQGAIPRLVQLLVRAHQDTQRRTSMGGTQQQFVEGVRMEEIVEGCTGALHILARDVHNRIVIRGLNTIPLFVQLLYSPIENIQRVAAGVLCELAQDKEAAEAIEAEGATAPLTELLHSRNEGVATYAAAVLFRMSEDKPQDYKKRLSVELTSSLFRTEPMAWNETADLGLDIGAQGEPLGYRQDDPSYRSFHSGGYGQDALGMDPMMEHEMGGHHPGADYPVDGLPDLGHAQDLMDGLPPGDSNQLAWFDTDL
Procedure Text: cell-based or functional assay
Starred links: 1 amine or outer side, 2 acyl side, 3 side chain; linkers in the order of their positions; H or OH if unused. Positions of bridges follow the written chain, without caps; N, C: chain ends. Non-standard residues stand in square brackets, D forms with d. Primed or numbered codes have the meaning given here. PyrS2″ = (S)-3-amino-1-((pent-4-en-1-yloxy)carbonyl)pyrrolidine-3-carboxylic acid (stapling residue), C=CCCCOC(=O)N1CC[C@@](N[*:1])(C(=O)[*:2])C1; MePpzAsn = (S)-2-amino-4-(4-methylpiperazin-1-yl)-4-oxobutanoic acid, CN1CCN(C(=O)C[C@H](N[*:1])C(=O)[*:2])CC1; MorphAsn = (S)-2-amino-4-morpholino-4-oxobutanoic acid, O=C(C[C@H](N[*:1])C(=O)[*:2])N1CCOCC1; B5(3) = 2,2-bis(4-pentenyl)glycine (stitching residue), C=CCCCC(CCCC=C)(N[*:1])C(=O)[*:2]; Phe(3-COOH) = N[C@@H](Cc1cccc(C(=O)O)c1)C(=O)O; 2F3MeF = Cc1cccc(C[C@H](N[*:1])C(=O)[*:2])c1F; Bta = N[C@@H](Cc1csc2ccccc12)C(=O)O; αAllylPro = C=CC[C@@]1(C(=O)O)CCCN1; tBuAla = CC(C)(C)C[C@H](N)C(=O)O
Quantity: NanoBRET Abs IC50 (µM)

INSERT INTO measurements (binder, quantity, reported) VALUES
  ('Ac-[αAllylPro]D[tBuAla][B5(3)]D[Phe(3-COOH)]AAFL[PyrS2″][2F3MeF][Bta][MorphAsn]-NH2 (staple 1-4, 4-11) [I-1614]', 'NanoBRET Abs IC50', 6.4),
  ('Ac-[αAllylPro]D[tBuAla][B5(3)]D[Phe(3-COOH)]AAFL[PyrS2″][2F3MeF][Bta][MePpzAsn]-NH2 (staple 1-4, 4-11) [I-1612]', 'NanoBRET Abs IC50', 5.3);
